In this section we review reported HD7 values for a set of molecules.
Test system: ICR mice
assay-text: Righting reflex experiment on mice
settings: mice; dose required to cause a 7-min anesthesia

CC(C)c1cccc(C(C)C)c1O [Propofol, reference compound] | 14.0 mg/kg
CC(c1cccc(C(C)C2CC2)c1O)C1CC1 (stereo not drawn) | 7.0 mg/kg
CCC(C)c1cccc(C(C)C2CC2)c1O (stereo not drawn) | 4.0 mg/kg
CC[C@H](C)c1cccc([C@@H](C)C2CC2)c1O | 8.0 mg/kg
C[C@@H](c1cccc([C@H](C)C2CC2)c1O)C1CC1 [Compound 18, 2,6-bis[(1R)-1-cyclopropylethyl]phenol] | 2.5 mg/kg

Exam item: Bench note: what HD7 did CC(C)c1cccc(C(C)C2CC2)c1O (stereo not drawn) show?
Marked response: 6.0 mg/kg

Exam item: Bench note: what HD7 did "CC(C)c1cccc([C@H](C)C2CC2)c1O" show?
Marked response: 3.5 mg/kg

Exam item: Bench note: what HD7 did "CC[C@H](C)c1cccc([C@H](C)C2CC2)c1O" show?
Marked response: 4.0 mg/kg

Exam item: Bench note: what HD7 did "CC[C@@H](C)c1cccc([C@H](C)C2CC2)c1O" show?
Marked response: 2.5 mg/kg
